Listed here: items and their measured solubility at 4 h.
assay: Solubility in human plasma at pH 7.2 to 7.8 incubated for 4 hrs by HPLC analysis
Assay type: ADME, cell-free
Give just the numeric value; µg/mL need not be written.

{"columns": ["compound smiles", "measured property", "units", "reported result"],
 "data": [
  ["COc1ccc(/C=C/C(=O)c2ccc(OC)c3c2OC(C)(C)C=C3)cc1O", "solubility at 4 h", "µg/mL", 146]
]}

Below: the item to evaluate.
Task: Answer with the recorded solubility at 4 h of COc1ccc(/C=C/C(=O)c2ccc(OC)c3c2OC(C)(C)C=C3)cc1OC(=O)CNC(=O)OC(C)(C)C only.
Output: 2980

---

Test system: A549
assay: Antiproliferative activity against human A549 cells assessed as cell growth inhibition incubated for 48 hrs by MTT assay
Assay type: functional, cell-based
condition notes: A549, 48 h
Listed here: items and their measured pIC50.
Notebook: values listed as pIC50 are -log10 of the concentration (mol/L).

Task: Give pIC50 only, for Cc1sc([Se]c2sc(C)c(-c3ccccc3)c2C(=O)NC(C)C(=O)N2CCCC2)c(C(=O)NC(C)C(=O)N2CCCC2)c1-c1ccccc1 (centres undefined) , using A549 data.
Output: 4.82

Task: Give pIC50 only, for Cc1sc(Br)c(C(=O)NC(CO)C(=O)N2CCCC2)c1-c1cccc(Cl)c1 (centres undefined) , using A549 data.
Output: 4.47

Task: Give pIC50 only, for Cc1sc(Br)c(C(=O)NC(C)C(=O)N2CCCC2)c1-c1cccc(F)c1 (centres undefined) , using A549 data.
Output: 4.35

Task: Give pIC50 only, for O=c1[nH]cc(F)c(=O)[nH]1 [FLUOROURACIL] , using A549 data.
Output: 4.73

---

System: MCF7
assay: Antiproliferative activity against human MCF7 cells assessed as cell growth inhibition incubated for 48 hrs by MTT assay
Format: functional, cell-based
condition notes: MCF7, 48 h
measured property: pIC50
Notebook: values listed as pIC50 are -log10 of the concentration (mol/L).

Observe how each entry below is paired with its result.
{"columns": ["compound", "measured property", "reported result"],
 "data": [
  ["Cc1sc([Se]c2sc(C)c(-c3cccc(F)c3)c2C(=O)NCC(=O)N2CCCC2)c(C(=O)NCC(=O)N2CCCC2)c1-c1cccc(F)c1", "pIC50", 4.87],
  ["Cc1sc(Br)c(C(=O)NC(C)C(=O)N2CCCC2)c1-c1ccccc1 (stereo not drawn)", "pIC50", 4.41],
  ["Cc1sc([Se]c2sc(C)c(-c3cccc(F)c3)c2C(=O)NC(C)C(=O)N2CCCC2)c(C(=O)NC(C)C(=O)N2CCCC2)c1-c1cccc(F)c1 (stereo not drawn)", "pIC50", 4.84],
  ["Cc1sc(Br)c(C(=O)NCC(=O)N2CCCC2)c1-c1cccc(F)c1", "pIC50", 4.36]
]}

Below: the item to evaluate.
Task: Answer with the recorded pIC50 of Cc1sc(Br)c(C(=O)NC(CO)C(=O)N2CCCC2)c1-c1cccc(Cl)c1 (stereo not drawn) only.
Output: 4.43

---

Test system: MCF7
assay: Antiproliferative activity against human MCF7 cells assessed as cell growth inhibition incubated for 48 hrs by MTT assay
Type: functional, cell-based
condition notes: MCF7, 48 h
measured property: IC50 (µM)
Give just the numeric value; µM need not be written.

{"columns": ["compound", "IC50 [µM]"],
 "data": [
  ["Cc1sc([Se]c2sc(C)c(-c3cccc(Cl)c3)c2C(=O)NC(CO)C(=O)N2CCCC2)c(C(=O)NC(CO)C(=O)N2CCCC2)c1-c1cccc(Cl)c1 (stereo not drawn)", 11.2],
  ["Cc1sc(Br)c(C(=O)NC(C)C(=O)N2CCCC2)c1-c1cccc(F)c1 (stereo not drawn)", 47.7]
]}

Task: Answer with the recorded IC50 of Cc1sc(Br)c(C(=O)NC(CO)C(=O)N2CCCC2)c1-c1cccc(Br)c1 (stereo not drawn) only.
Output: 32.7
